The reported measurements were obtained from patent US20250163186A1.

- assayed_target: T1, human IgE (human, UniProt P01854 1-428)
- T1 construct: written under the same molecule; also called IgE (Abcam ab65866); soluble IgE
- T1 sequence (P01854 other isoform, or with tags, fused parts or gaps limits assumed, form in doubt): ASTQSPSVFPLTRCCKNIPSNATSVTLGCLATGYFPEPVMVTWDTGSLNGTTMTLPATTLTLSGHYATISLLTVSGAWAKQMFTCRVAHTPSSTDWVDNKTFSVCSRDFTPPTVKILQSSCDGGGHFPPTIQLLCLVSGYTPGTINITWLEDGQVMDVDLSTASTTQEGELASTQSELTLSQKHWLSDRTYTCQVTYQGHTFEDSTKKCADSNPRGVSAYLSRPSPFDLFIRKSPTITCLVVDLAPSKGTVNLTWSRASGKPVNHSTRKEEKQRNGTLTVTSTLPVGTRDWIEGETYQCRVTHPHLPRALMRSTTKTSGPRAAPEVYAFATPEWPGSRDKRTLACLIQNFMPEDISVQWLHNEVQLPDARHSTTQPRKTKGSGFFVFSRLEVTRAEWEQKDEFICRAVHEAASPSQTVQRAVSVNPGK
- protocol: ELISA, clone lysate on IgE-coated plate
Tick y if Confirm OD450 Duplicate2 is 0.6 or greater. Tick n if Confirm OD450 Duplicate2 is less than 0.6.

binder	class_name
3-1B9 (VHH, also called hzB10v40 VHH, CDR1 site 3 T to N) VHH: EVQLLESGGGEVQPGGSLRLSCVASGLNFSSYNMGWLRQAPGKEREFVGLSGSSSTSTYYAESVKGRFTISRDNAKNTVYLQMTSLRAEDTAVYYCAARRLLSTYWSDRSWDFWGQGTLVTVEP	y
8G10 (VHH, also called hzB10v40 VHH, CDR1 site 8 N to S) VHH: EVQLLESGGGEVQPGGSLRLSCVASGLTFSSYSMGWLRQAPGKEREFVGLSGSSSTSTYYAESVKGRFTISRDNAKNTVYLQMTSLRAEDTAVYYCAARRLLSTYWSDRSWDFWGQGTLVTVEP	n
4-1F10 (VHH, also called hzB10v40 VHH, CDR1 site 4 F to Y) VHH: EVQLLESGGGEVQPGGSLRLSCVASGLTYSSYNMGWLRQAPGKEREFVGLSGSSSTSTYYAESVKGRFTISRDNAKNTVYLQMTSLRAEDTAVYYCAARRLLSTYWSDRSWDFWGQGTLVTVEP	n
33-2C4 (VHH) VHH: EVQLLESGGGEVQPGGSLRLSCVASGLTFSSYNMGWLRQAPGKEREFVGLSGSSSTSTYYAESVKGRFTISRDNAKNTVYLQMTSLRAEDTAVYYCAARRLFSTYWSDRSWDFWGQGTLVTVEP	n
10G10 (VHH, also called hzB10v40 VHH, CDR1 site 10 G to A) VHH: EVQLLESGGGEVQPGGSLRLSCVASGLTFSSYNMAWLRQAPGKEREFVGLSGSSSTSTYYAESVKGRFTISRDNAKNTVYLQMTSLRAEDTAVYYCAARRLLSTYWSDRSWDFWGQGTLVTVEP	n
5H11 (VHH, also called hzB10v40 VHH, CDR1 site 5 S to R) VHH: EVQLLESGGGEVQPGGSLRLSCVASGLTFRSYNMGWLRQAPGKEREFVGLSGSSSTSTYYAESVKGRFTISRDNAKNTVYLQMTSLRAEDTAVYYCAARRLLSTYWSDRSWDFWGQGTLVTVEP	n
6H1 (VHH, also called hzB10v40 VHH, CDR1 site 6 S to P) VHH: EVQLLESGGGEVQPGGSLRLSCVASGLTFSPYNMGWLRQAPGKEREFVGLSGSSSTSTYYAESVKGRFTISRDNAKNTVYLQMTSLRAEDTAVYYCAARRLLSTYWSDRSWDFWGQGTLVTVEP	n
2-2C3 (VHH, also called hzB10v40 VHH, CDR1 site 2 L to V) VHH: EVQLLESGGGEVQPGGSLRLSCVASGVTFSSYNMGWLRQAPGKEREFVGLSGSSSTSTYYAESVKGRFTISRDNAKNTVYLQMTSLRAEDTAVYYCAARRLLSTYWSDRSWDFWGQGTLVTVEP	y
32F11 (VHH) VHH: EVQLLESGGGEVQPGGSLRLSCVASGLTFSSYNMGWLRQAPGKEREFVGLSGSSSTSTYYAESVKGRFTISRDNAKNTVYLQMTSLRAEDTAVYYCAARRRLSTYWSDRSWDFWGQGTLVTVEP	n
33-2A2 (VHH) VHH: EVQLLESGGGEVQPGGSLRLSCVASGLTFSSYNMGWLRQAPGKEREFVGLSGSSSTSTYYAESVKGRFTISRDNAKNTVYLQMTSLRAEDTAVYYCAARRLKSTYWSDRSWDFWGQGTLVTVEP	n
8H11 (VHH, also called hzB10v40 VHH, CDR1 site 8 N to R) VHH: EVQLLESGGGEVQPGGSLRLSCVASGLTFSSYRMGWLRQAPGKEREFVGLSGSSSTSTYYAESVKGRFTISRDNAKNTVYLQMTSLRAEDTAVYYCAARRLLSTYWSDRSWDFWGQGTLVTVEP	n
5C3 (VHH, also called hzB10v40 VHH, CDR1 site 5 S to D) VHH: EVQLLESGGGEVQPGGSLRLSCVASGLTFDSYNMGWLRQAPGKEREFVGLSGSSSTSTYYAESVKGRFTISRDNAKNTVYLQMTSLRAEDTAVYYCAARRLLSTYWSDRSWDFWGQGTLVTVEP	n
3-1A1 (VHH, also called hzB10v40 VHH, CDR1 site 3 T to V) VHH: EVQLLESGGGEVQPGGSLRLSCVASGLVFSSYNMGWLRQAPGKEREFVGLSGSSSTSTYYAESVKGRFTISRDNAKNTVYLQMTSLRAEDTAVYYCAARRLLSTYWSDRSWDFWGQGTLVTVEP	n
